The measured values listed here are drawn from paper PMC8873251.

# measurement.target: cytochrome bd oxidase (Mycobacterium tuberculosis, UniProt L7N662+O06139)
# Sequence (O06139 entry or part of it): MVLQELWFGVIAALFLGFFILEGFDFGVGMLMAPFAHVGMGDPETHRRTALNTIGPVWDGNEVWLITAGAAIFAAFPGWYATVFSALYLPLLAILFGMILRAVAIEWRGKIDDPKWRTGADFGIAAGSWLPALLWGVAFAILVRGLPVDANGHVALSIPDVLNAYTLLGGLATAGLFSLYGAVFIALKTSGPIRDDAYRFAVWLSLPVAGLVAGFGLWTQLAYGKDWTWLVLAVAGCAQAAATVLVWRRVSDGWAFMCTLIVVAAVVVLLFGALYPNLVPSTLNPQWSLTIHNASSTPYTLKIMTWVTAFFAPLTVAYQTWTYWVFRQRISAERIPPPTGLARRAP
# Sequence (L7N662 entry or part of it): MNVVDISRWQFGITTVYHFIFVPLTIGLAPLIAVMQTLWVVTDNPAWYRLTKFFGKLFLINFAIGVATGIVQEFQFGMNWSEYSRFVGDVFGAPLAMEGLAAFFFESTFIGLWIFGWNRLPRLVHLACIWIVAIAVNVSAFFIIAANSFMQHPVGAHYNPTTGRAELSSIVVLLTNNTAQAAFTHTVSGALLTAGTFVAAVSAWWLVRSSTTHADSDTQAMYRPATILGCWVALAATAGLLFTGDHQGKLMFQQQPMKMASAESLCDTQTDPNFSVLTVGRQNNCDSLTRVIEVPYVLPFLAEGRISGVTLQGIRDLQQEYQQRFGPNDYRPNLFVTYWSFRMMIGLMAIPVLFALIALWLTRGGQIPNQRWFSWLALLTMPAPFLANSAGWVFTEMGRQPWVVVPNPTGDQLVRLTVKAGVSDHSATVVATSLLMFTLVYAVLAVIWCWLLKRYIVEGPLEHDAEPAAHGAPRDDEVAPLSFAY
# protocol.text: malate-driven oxygen consumption in IMVs pre-inhibited with TB47, titration; empty-vector control
endpoint: pIC50
// field semantics: pIC50 = negative decimal log of concentration (mol/L)

(Q) Identify pIC50 associated with the molecule N=C(N)NC(=O)c1nc(-c2cc3ccccc3o2)c(N)nc1N [HM2-16F]
(A) 4.67
